Measurement protocol: Rat study: pharmacokinetics, plasma levels by LCMS
Assay type: in vivo, Rats (male Sprague Dawley)
Assay setup: male, Sprague Dawley, iv, 0.5 mg/kg, single intravenous dose 0.5 mg/kg, average of 6 rats, read-out: AUCinf (hr * ng/mL), Avg
Property measured: AUC(0-inf) (ng·h/mL)
A number alone suffices; assume ng·h/mL.

Record request: AUC(0-inf) value, item CCCC1O[C@@H]2C[C@H]3[C@@H]4CCC5=CC(=O)C=C[C@]5(C)[C@H]4[C@@H](O)C[C@]3(C)[C@]2(C(=O)CO)O1 (stereo partly shown) [Budesonide, budesonide]
148

* * *

Measurement protocol: Rat study: pharmacokinetics, plasma levels by LCMS
Type: in vivo, Rats (male Sprague Dawley)
Assay setup: male, Sprague Dawley, iv, 0.5 mg/kg, single intravenous dose 0.5 mg/kg, average of 6 rats, read-out: Cl (mL/hr/kg), Avg (converted)
Property measured: clearance (mL/h/kg)
The answer is to be given in mL/h/kg; state only the numeric part.

Fill blank: measured clearance of the molecule CCCC1O[C@@H]2C[C@H]3[C@@H]4CCC5=CC(=O)C=C[C@]5(C)[C@H]4[C@@H](O)C[C@]3(C)[C@]2(C(=O)CO)O1 (stereo partly shown) [Budesonide, budesonide] is ____.
3480
